Target: Receptor tyrosine-protein kinase erbB-2 (Homo sapiens)
Test: Her2 expression decrease, cell viability multiplex – SKBR3 breast tumor cells, AlphaScreen, ATP viability, primary screen (AID 461);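 for Her2 level: lower value means less Her2 protein in the cells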;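 for viability: percent of carrier control wells set as 100% viability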
Details: 18-24 h, at 10 µM, stronger effect = lower value
Recorded metric: Her2 level (%)
Please state the figure in %; there is no need to write the unit.

Examples with their reported Her2 level follow.
O=C1c2ccccc2C(Nc2ccc3c(c2)OCO3)N1Cc1ccc2c(c1)OCO2 (stereo not given); 81.5
Cc1c(C)n(C)c2ccc(C(=O)NCc3cccs3)cc12; 87.5

So what does the record say about Her2 level for Cc1c(C(=O)OCCOC(C)C)[nH]c2c1C(=O)CC(c1ccco1)C2 (stereo not given) ?
73

Then CC1CCN(C(=O)CSc2nnc(Cc3cc(=O)[nH]c(=O)[nH]3)n2-c2ccc(Cl)cc2)CC1 ?
117

Then Cc1noc(/C=C/N(C)C)c1S(=O)(=O)N1CCCC(C(=O)NCCC2=CCCCC2)C1 (stereo not given) ?
79

Then Cc1nc2ccccn2c1/C(O)=C1\C(=O)C(=O)N(CCCN(C)C)C1c1ccc(F)cc1 (stereo not given) ?
91

Then O=C(Nc1ccc2snnc2c1)N1CCN(c2ccccc2)CC1 ?
86

Then CC(c1ccccc1)n1cnc2ccccc21 (stereo not given) ?
104

----------
Assay: MRP1 drug-resistance reversers in H69AR cells – cell-based, doxorubicin co-treatment, pilot screen (AID 601)
Settings: H69AR cells, CellTiter-Glo, 72 h; compound alone cytotoxicity; at 10 µM
Consider the cut-off 90%. If the recorded viability is strictly smaller, the label is criterion met; if not, the label is criterion not met.

COc1ccc(/C=N/O)cc1COc1ccc(NC(C)=O)cc1; criterion not met

Is it true that viability reported for CCCCCn1c(=O)[nH]c2cc(C(=O)NCCN3CCOCC3)ccc2c1=O is less than 90%?
criterion not met

Then COC(=O)C1(C#N)C(c2ccccc2)C1(C(=O)OC)C(=O)OC (stereo unspecified) ?
criterion not met

Then Cn1c(=O)oc2cc(S(=O)(=O)N3CCCC(C(=O)NCC4COc5ccccc5O4)C3)ccc21 (stereo unspecified) ?
criterion not met

Then Oc1ccccc1-c1nnc(COc2ccc(Cl)cc2Cl)o1 ?
criterion met

Then O=C(NCc1ccc(F)cc1)c1cc2ccccn2n1 ?
criterion not met

Then CCn1c2ccccc2c2cc(Nc3cc(C)nc4ncnn34)ccc21 ?
criterion met

Then CS(=O)(=O)N(Cc1ccco1)CC(O)Cn1c2ccccc2c2ccccc21 (stereo unspecified) ?
criterion met

----------
Test: viability of HCT116 without oncogenic beta-catenin – human colon tumor cells, pilot screen (AID 823);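 note: 0% = wells killed by 20 µM Hyamine and 100% = untreated DMSO cell wells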
Conditions: HCT116 beta-catenin knockout viability, CellTiter-Glo, 60 h; at 10 µM; stronger effect = lower value
Inconclusive results are not listed.
Recorded metric: viability (%)
Please state the figure in %; there is no need to write the unit.

Examples with their reported viability follow.
O=C(NCCN1CCOCC1)c1ccc2c(c1)N(Cc1ccccc1F)C(=O)CS2; 102
CCOC(=O)C1C(C)N=C2SCC(=O)N2C1c1cccc(Br)c1 (stereo not given); 86.4

Now for the compound whose viability we want.
So what does the record say about viability for O=C(c1ccc2nc(N3CCOCC3)sc2c1)N1CCCC1 ?
99.1

----------
Listed compounds paired with reported viability
Experiment: Her2 expression decrease, cell viability multiplex – SKBR3 breast tumor cells, AlphaScreen, ATP viability, primary screen (AID 461);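 for viability: percent of carrier control wells set as 100% viability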
Conditions: SKBR3 Her2 protein level, 18-24 h, measured here: SKBR3 viability, ATP luminescence, at 10 µM
Please state the figure in %; there is no need to write the unit.

Cc1cc(C)nc(/N=C2\NC(=O)CC(C(=O)O)N2c2ccc(Cl)cc2)n1 (configuration not stated); 106
O=C(c1ccco1)N1CCN(C(=O)c2sccc2-c2ccccc2)CC1; 93
COc1ccccc1-c1nnc(SCC(=O)NC2CCCCC2)o1; 83
CCn1c(SCC(=O)Nc2cc(C)ccc2C)nc2c(c1=O)SC(C)C2 (configuration not stated); 90.5

So what does the record say about viability for Cc1nnc(SCC(=O)Nc2ccc3c4c(cccc24)CC3)n1C ?
102

Then CCOc1ccc2[nH]c(C)cc(=O)c2c1 ?
100

Then CCS(=O)(=O)c1nc2ccccc2n1Cc1ccccc1Cl ?
101

Then COc1ccc(NC(=O)c2cnc3n(c2=O)CCS3)cc1OC ?
112

Then C=CCSc1nc2sc(C)c(C)c2c(=O)[nH]1 ?
97.5

----------
Assay: viability of HCT116 without oncogenic beta-catenin – human colon tumor cells, pilot screen (AID 823);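 note: 0% = wells killed by 20 µM Hyamine and 100% = untreated DMSO cell wells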
Details: HCT116 beta-catenin knockout viability, CellTiter-Glo, 60 h; at 10 µM; stronger effect = lower value
Results filed as inconclusive are left out. Active and inactive are the calls of the source.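 How the source made its calls: active means cell viability at or below a set limit in both duplicate runs, the limit being the all-compound median minus 4 SD (cut at about 23% in these data, passing the limit was not always enough); inconclusive means no clear call, values can overlap the other calls; inactive means the rest.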
Recorded metric: viability

Examples with their reported viability follow.
O=C(CN1CCN(c2ncccn2)CC1)N1CCN(C(c2ccccc2)c2ccccc2)CC1; 84.8% (inactive)
CC1Cn2c(nnc2-c2ccc(F)cc2)S1 (stereo not drawn); 112% (inactive)
CCCN(CCC)C(=O)c1c(C)[nH]c(C(=O)OCC)c1C; 92.9% (inactive)
CCCn1cc(SCC(N)=O)c2ccccc21; 100% (inactive)
Cc1ccc(C2CC(=O)NC(SCCC(C)C)=C2C#N)cc1 (stereo not drawn); 96.8% (inactive)

So what does the record say about viability for CCCC(=O)NC(C)c1nc2ccccc2n1C(C)C (stereo not drawn) ?
97.5% (inactive)

Then CCOc1ccc(-n2c(SCC(=O)NCc3ccco3)nc3c(c2=O)SCC3)cc1 ?
95.2% (inactive)

Then COc1cc2c(cc1OC)C(COc1ccc3c(C)cc(=O)oc3c1)N(C(=O)c1ccco1)CC2 (stereo not drawn) ?
91.8% (inactive)

Then COc1cccc2cc(C(=O)Nc3cccnc3N3CCOCC3)c(=O)oc12 ?
101% (inactive)

Then CCOC(=O)N1CCC(NC(=O)Cn2c3c(c(-c4ccccc4Cl)cc2=O)CCC3)CC1 ?
88.8% (inactive)

----------
Test: MRP1 drug-resistance reversers in H69AR cells – cell-based, doxorubicin co-treatment, pilot screen (AID 601)
Details: H69AR cells, CellTiter-Glo, 72 h; compound alone cytotoxicity; at 10 µM
Recorded metric: viability (%)
Please state the figure in %; there is no need to write the unit.

Cc1cccc(OCC(=O)Nc2ccc(N3CCCC3)cc2)c1C; 56.5
CCCN(CCC)C(=O)c1c(C)[nH]c(C(=O)OCC)c1C; 81.4
Oc1ccc(-c2n[nH]c(=S)n2Cc2ccccc2)cc1; 105
COc1ccc(NS(=O)(=O)c2coc(C(N)=O)c2)cc1Cl; 99.1
Cn1c(C(=O)NCCCN2CCCCCC2)cc2c(=O)n(C)c3ccccc3c21; 87.2

So what does the record say about viability for CCOc1cc(C2CC(=O)N3CN(C4CCCCC4)CSC3=C2C#N)ccc1O (stereo unspecified) ?
87.3

Then COc1ccc(C(=O)CN2C3=NCCCN3c3ccccc32)cc1OC ?
82.4

Then COC(=O)c1oc2ccc(Br)cc2c1NC(C)=O ?
98.2

Then Oc1cccc(C=NCc2ccccc2)c1O ?
51

Then CC(C)CNc1oc(-c2ccc(F)cc2)nc1C#N ?
94.2

Then Cc1nc2ccccn2c1/C(O)=C1\C(=O)C(=O)N(CCCN(C)C)C1c1ccc(F)cc1 (stereo unspecified) ?
90.8

----------
Assay: viability of HCT116 without oncogenic beta-catenin – human colon tumor cells, pilot screen (AID 823);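 note: 0% = wells killed by 20 µM Hyamine and 100% = untreated DMSO cell wells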
Settings: HCT116 beta-catenin knockout viability, CellTiter-Glo, 60 h; at 10 µM; stronger effect = lower value
Records with an inconclusive call do not appear.
Recorded metric: viability (%)
Please state the figure in %; there is no need to write the unit.

Examples with their reported viability follow.
Cc1cc(Oc2ccccc2)nc2ccc(O)cc12; 89.9
O=C(Nc1cccc(F)c1)C1C2C=CC3(CN(CCCN4CCOCC4)C(=O)C13)O2 (centres undefined); 106
COc1ccc(-c2nc(CSCC(=O)N3CCN(c4cccc(C)c4)C(C)C3)c(C)o2)cc1OC (centres undefined); 56.9

So what does the record say about viability for CC1CCCCN1CCNC(=O)C1CCN(S(=O)(=O)c2cccc3cccnc23)CC1 (centres undefined) ?
101

Then O=C(NC1CCCCCC1)c1c(F)c(F)c(F)c(F)c1F ?
91.8

Then CCN1C(=O)c2ccccc2S(=O)(=O)c2ccc(C(=O)NCc3cccnc3)cc21 ?
93.4

Then COc1ccc2c(c1)OC1(C)CC2C(C(=O)c2ccccc2OC)C(=O)N1 (centres undefined) ?
80.4

Then COCCOC(=O)C1=C(C)NC2=C(C(=O)CCC2)C1c1cc2c(cc1Br)OCO2 (centres undefined) ?
92.4

Then COc1ccc(C(=O)n2nc(C)cc2C)cc1Br ?
101

Then Oc1cccc(C=NCc2ccccc2)c1O ?
71

Then CCCCC(NC(C)=O)c1nc2ccccc2n1CCC (centres undefined) ?
93.6

Then CCOCC(=O)Nc1nc2c(s1)C(=O)CC(C)(C)C2 ?
97.3

Then Cc1sc2nc(SCC(=O)NCCO)n(C)c(=O)c2c1C ?
105

Then O=C(NCC1CCCO1)C1CCN(S(=O)(=O)c2cccc3cccnc23)CC1 (centres undefined) ?
94.2

Then CC(NC(=O)c1ccc(Cl)cc1)C(=O)N1CCCCC1 (centres undefined) ?
98

Then CCCN1CCC(N(C)CCc2ccc(OC)c(OC)c2)CC1 ?
88.4

Then Cc1[nH]nc2c1C(=O)CC(C)(C)C2 ?
95.8

Then CCN(c1cccc(C)c1)S(=O)(=O)c1cccc2nsnc12 ?
77.1

Then O=C(C(Cc1ccccc1)n1cccc1)N1CCCCCC1 (centres undefined) ?
95.3

Then CCOc1ccc(NC2c3ccccc3C(=O)N2Cc2ccco2)cc1 (centres undefined) ?
92.6
